system tested: UniProt:P40818
test protocol: Ubiquitin-specific protease 8 inhibitors, concentration-effect, biochemical, validation of initial actives (AID 1645862);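 further: potency reflects inhibition of USP8 cleavage of a ubiquitin rhodamine substrate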
condition details: recombinant USP8 deubiquitinase activity assay
Calls of active or inactive are those of the source. How the calls were made is not given here.
Respond with a class label; see active, inactive

Sample answers from the record:
compound: CN1CC(c2ncn[nH]2)c2cc(C(=O)NCc3cccc(F)c3)ccc21 (stereo not given)
system tested: UniProt:P40818
assigned class: inactive
//
compound: Cc1ccccc1-c1nc(-c2cn(CC(=O)Nc3ccccc3)cn2)no1
system tested: UniProt:P40818
assigned class: inactive
//
compound: Cc1nn(-c2ccccc2)c2c1nc(CCC(=O)NC1CCCCC1)c(=O)n2C
system tested: UniProt:P40818
assigned class: inactive
//
compound: CCc1ccc(CN(C)C(=O)c2ccc(NS(=O)(=O)c3ccc(F)c(F)c3)cc2)cc1
system tested: UniProt:P40818
assigned class: inactive
//
compound: CS(=O)(=O)NC1CCCN(C(=O)Nc2cccc3ccccc23)C1 (stereo not given)
system tested: UniProt:P40818
assigned class: inactive
//
compound: COC(=O)Nc1cccn(Cc2c(Cl)cccc2Cl)c1=O
system tested: UniProt:P40818
assigned class: inactive

Which result was noted for this compound in the test: CCOc1ccc(-n2c(SCC(=O)Nc3ccc(C)cc3)nnc2-c2c[nH]c3ccccc23)cc1
active

Which result was noted for this compound in the test: Cc1ccc(NC(=O)Nc2ccc(C)n(CC(=O)Nc3cccc(C)c3)c2=O)cc1
inactive

Which result was noted for this compound in the test: O=C(c1cc(Cl)c(Cl)[nH]1)c1cc(Cl)cc(Cl)c1O
inactive

Which result was noted for this compound in the test: COCCCN1CCS(=O)(=O)c2c(Cl)c(F)nc(Oc3ccccc3F)c21
inactive

Which result was noted for this compound in the test: O=C(c1cscn1)N1CCC2(CC1)CC1(CO2)Nc2ccccc2-n2cccc21 (stereo not given)
inactive

Which result was noted for this compound in the test: CN1CCC(N2CCN(C(=O)C3CCCN(c4cnc5nccnc5c4)C3)CC2)CC1 (stereo not given)
inactive

Which result was noted for this compound in the test: Cc1ccc(NC(=O)Cc2nnc3c(-c4nc(C5CC5)no4)cccn23)c(C)c1
inactive

Which result was noted for this compound in the test: COc1ccc(-n2c(=O)c3ccc(C(=O)NCCc4ccccc4)cc3n(CC(=O)NCc3ccco3)c2=O)cc1
inactive

Which result was noted for this compound in the test: CCc1cccc(CC)c1NC(=O)COC(=O)c1cc2cccc(OC)c2oc1=O
inactive

###

system tested: Ubiquitin carboxyl-terminal hydrolase 8 (Homo sapiens)
test protocol: Ubiquitin-specific protease 8 inhibitors, concentration-effect, biochemical, validation of initial actives (AID 1645862);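 further: potency reflects inhibition of USP8 cleavage of a ubiquitin rhodamine substrate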
condition details: recombinant USP8 deubiquitinase activity assay
Active and inactive are the calls of the source. How the calls were made is not given here.
Respond with a class label; see active, inactive

Sample answers from the record:
smiles notation: Cc1occ2c1C(=O)c1c(O)ccc(O)c1C2
assigned class: active
--
smiles notation: Cn1c(SCC(=O)c2ccc(F)cc2)nnc1-c1cc2ccccc2o1
assigned class: inactive
--
smiles notation: CN(C(=O)C1(c2ccccc2)CC1)c1nc2c(s1)CCc1occc1-2
assigned class: inactive
--
smiles notation: Cc1ccc2[nH]c(=O)c(-c3nc4ccccn4c3NCc3ccccc3)cc2c1
assigned class: inactive
--
smiles notation: Cc1cc(=O)[nH]c(SCC(=O)c2cc(C)n(CCC3=CCCCC3)c2C)c1C#N
assigned class: inactive

Field: next compound
Which result was noted for this compound in the test: COc1ccc(-c2n[nH]n3c2nc(=O)c2ccc(C(=O)NCc4ccco4)cc23)cc1
inactive

###

system tested: Ubiquitin carboxyl-terminal hydrolase 8 (Homo sapiens) (UniProt P40818)
Sequence (P40818 whole entry, looked up): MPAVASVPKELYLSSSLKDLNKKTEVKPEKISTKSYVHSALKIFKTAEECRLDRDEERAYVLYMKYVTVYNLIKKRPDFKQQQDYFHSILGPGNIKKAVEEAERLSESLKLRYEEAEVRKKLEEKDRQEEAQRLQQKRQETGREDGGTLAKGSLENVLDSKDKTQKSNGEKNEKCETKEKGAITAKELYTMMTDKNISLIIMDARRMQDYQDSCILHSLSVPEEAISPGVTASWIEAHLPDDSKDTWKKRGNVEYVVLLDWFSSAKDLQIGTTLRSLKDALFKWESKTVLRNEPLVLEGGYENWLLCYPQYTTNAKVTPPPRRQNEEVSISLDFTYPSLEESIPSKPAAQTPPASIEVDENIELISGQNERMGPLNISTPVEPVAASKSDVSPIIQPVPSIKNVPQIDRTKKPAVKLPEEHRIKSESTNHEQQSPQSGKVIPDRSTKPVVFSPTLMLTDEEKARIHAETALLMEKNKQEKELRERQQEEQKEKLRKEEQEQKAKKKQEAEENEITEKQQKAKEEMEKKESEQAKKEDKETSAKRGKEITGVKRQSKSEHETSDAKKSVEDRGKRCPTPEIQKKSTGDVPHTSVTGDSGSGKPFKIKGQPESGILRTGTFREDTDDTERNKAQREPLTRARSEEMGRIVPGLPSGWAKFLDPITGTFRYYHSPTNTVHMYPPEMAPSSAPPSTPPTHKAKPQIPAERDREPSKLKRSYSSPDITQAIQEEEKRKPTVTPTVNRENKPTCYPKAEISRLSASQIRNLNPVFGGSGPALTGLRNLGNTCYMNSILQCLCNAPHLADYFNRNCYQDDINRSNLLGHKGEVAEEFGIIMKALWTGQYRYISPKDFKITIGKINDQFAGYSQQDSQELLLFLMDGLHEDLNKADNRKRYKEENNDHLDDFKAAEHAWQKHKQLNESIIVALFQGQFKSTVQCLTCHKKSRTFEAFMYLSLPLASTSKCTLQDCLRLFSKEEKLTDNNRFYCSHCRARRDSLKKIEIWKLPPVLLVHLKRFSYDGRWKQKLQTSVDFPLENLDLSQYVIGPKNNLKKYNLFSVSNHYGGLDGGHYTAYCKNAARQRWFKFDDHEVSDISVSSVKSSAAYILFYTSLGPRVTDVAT
test protocol: Ubiquitin-specific protease 8 inhibitors, concentration-effect, biochemical, validation of initial actives (AID 1645862);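 further: potency reflects inhibition of USP8 cleavage of a ubiquitin rhodamine substrate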
condition details: recombinant USP8 deubiquitinase activity assay
Active and inactive are the calls of the source. How the calls were made is not given here.
Respond with a class label; see t (active), f (inactive)

Sample answers from the record:
compound: Cn1cc(-c2nc(C(=O)Nc3ccc(C#N)cc3)cs2)c2cccnc21
assigned class: f

compound: CC(C)=CCC[C@H](C(=O)O)[C@@H]1CC[C@]2(C)C3=C(CC[C@@]12C)[C@@]1(C)CCC(=O)C(C)(C)C1CC3 (stereo partly specified)
assigned class: f

compound: Oc1cccc2nc3c(O)cccc3nc12
assigned class: t

compound: O=C(Nc1ccccc1)[C@@H]1[C@@H]2C(=O)N(c3ccc([N+](=O)[O-])cc3)C(=O)[C@@H]2[C@H]2c3ccccc3C=CN12
assigned class: t

compound: Cc1cccc(C)c1NC(=O)COc1ccccc1-c1nnc(-c2ccccc2)o1
assigned class: f

Field: next compound
Which result was noted for this compound in the test: COc1ccc(NS(=O)(=O)c2cc(NC(=O)CC(=O)c3ccc([N+](=O)[O-])cc3)ccc2Cl)cc1
f

###

system tested: Ubiquitin carboxyl-terminal hydrolase 8 (Homo sapiens) (UniProt P40818)
test protocol: Ubiquitin-specific protease 8 inhibitors, concentration-effect, biochemical, validation of initial actives (AID 1645862);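 further: potency reflects inhibition of USP8 cleavage of a ubiquitin rhodamine substrate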
condition details: recombinant USP8 deubiquitinase activity assay
Activity calls are given as the source filed them. How the calls were made is not given here.
Respond with a class label; see 1 for active, -1 for inactive

Sample answers from the record:
compound: O=C(Nc1ccc(F)cc1F)NC1CCN(c2ccccc2)C1=O (stereo not given)
system tested: Ubiquitin carboxyl-terminal hydrolase 8 (Homo sapiens) (UniProt P40818)
assigned class: -1
//
compound: O=C(c1cc2occc2c(Nc2ccc(F)cc2)n1)N1CCN(c2ccccc2)CC1
system tested: Ubiquitin carboxyl-terminal hydrolase 8 (Homo sapiens) (UniProt P40818)
assigned class: -1
//
compound: COc1ccc(-c2noc(C3(c4ccc(F)cc4)CCOCC3)n2)cc1
system tested: Ubiquitin carboxyl-terminal hydrolase 8 (Homo sapiens) (UniProt P40818)
assigned class: -1

Field: next compound
Which result was noted for this compound in the test: O=c1c2ccccc2oc2nc(-c3cccs3)n(-c3ccccc3)c(=O)c12
1

###

system tested: UniProt P40818
test protocol: Ubiquitin-specific protease 8 inhibitors, concentration-effect, biochemical, validation of initial actives (AID 1645862);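 further: potency reflects inhibition of USP8 cleavage of a ubiquitin rhodamine substrate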
condition details: recombinant USP8 deubiquitinase activity assay
The source made the active and inactive calls. No rule for the calls is given here.
Respond with a class label; see active, inactive

Sample answers from the record:
compound: COc1cc(OC)c(NC(=O)c2cc(-c3ccccn3)n[nH]2)cc1Cl
system tested: UniProt P40818
assigned class: inactive

compound: O=C(c1ccc(Cl)cc1)N(c1ccccn1)C1CCCCC1
system tested: UniProt P40818
assigned class: inactive

Which result was noted for this compound in the test: Cc1ccc(Nc2nc3c(S(=O)(=O)c4ccccc4)nnn3c3ccccc23)c(C)c1
inactive

Which result was noted for this compound in the test: COc1cc(-c2ccccc2)c(O)c(O)c1-c1ccccc1
active

###

system tested: Ubiquitin carboxyl-terminal hydrolase 8 (Homo sapiens)
test protocol: Ubiquitin-specific protease 8 inhibitors, concentration-effect, biochemical, validation of initial actives (AID 1645862);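 further: potency reflects inhibition of USP8 cleavage of a ubiquitin rhodamine substrate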
condition details: recombinant USP8 deubiquitinase activity assay
Activity calls are given as the source filed them. The rule behind the calls is not given here.
Respond with a class label; see active, inactive

Which result was noted for this compound in the test: COc1ccc(CNC(=O)CN2C(=O)CC(c3ccccc3)=Nc3ccccc32)cc1
inactive

Which result was noted for this compound in the test: CC(=O)NS(=O)(=O)c1ccc(NC(=O)/C=C/c2cn(-c3ccccc3)nc2-c2ccccc2)cc1
active

Which result was noted for this compound in the test: O=C(Nc1ccc(F)cc1F)c1cc(-c2ccccn2)n[nH]1
inactive

###

system tested: UniProt:P40818
test protocol: Ubiquitin-specific protease 8 inhibitors, concentration-effect, biochemical, validation of initial actives (AID 1645862);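 further: potency reflects inhibition of USP8 cleavage of a ubiquitin rhodamine substrate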
condition details: recombinant USP8 deubiquitinase activity assay
The source made the active and inactive calls. The rule behind the calls is not given here.
Respond with a class label; see y = active, n = inactive

Sample answers from the record:
compound: CCOc1ccc(-n2ccnc(SCC(=O)Nc3ccccc3F)c2=O)cc1
assigned class: n
//
compound: O=C(CCn1c(=O)c2ccccc2n(Cc2ccc(F)cc2Cl)c1=O)NCc1ccco1
assigned class: n
//
compound: CCCCCCC1CCC(O)CC(O)CC(O)CC(O)CC(O)CC(O)/C(C)=C/C=C\C=C/C=C/C=C/[C@H](O)[C@@H](C)OC1=O (some centres not stated)
assigned class: n
//
compound: CCCCCCCCCCCCCCCc1cc(O)cc(O)c1C(=O)O
assigned class: y
//
compound: CCN(Cc1ccccc1)C(=O)C1CCN(Cc2ccc(OC)c(OC)c2OC)CC1
assigned class: n

Which result was noted for this compound in the test: COc1ccc(Cl)cc1C(=O)NNC(=O)c1cc(-c2ccccc2)n[nH]1
n

Which result was noted for this compound in the test: COc1ccc(-c2cc3nc([C@H](C)NC(=O)Cc4ccccc4C)nn3cn2)cc1
n

Which result was noted for this compound in the test: COc1cccc(NC(=O)c2cnc(N3CCCC3)nc2C)c1
n

###

system tested: Ubiquitin carboxyl-terminal hydrolase 8 (Homo sapiens) (UniProt P40818)
test protocol: Ubiquitin-specific protease 8 inhibitors, concentration-effect, biochemical, validation of initial actives (AID 1645862);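 further: potency reflects inhibition of USP8 cleavage of a ubiquitin rhodamine substrate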
condition details: recombinant USP8 deubiquitinase activity assay
Activity calls are given as the source filed them. No rule for the calls is given here.
Respond with a class label; see active, inactive

compound: COc1cccc(C(=O)Nc2ccc(SC(C)C(=O)Nc3ccc(C(N)=O)cc3)cc2)c1 (centres undefined)
assigned class: inactive
--
compound: Cc1ncc(CO)c2c1Oc1nc(-c3cccc(Cl)c3)nc(SCC(=O)N3CCCCC3)c1C2
assigned class: inactive
--
compound: CCC(=O)N1c2ccccc2NC2=C(C(=O)CC(c3ccccc3OCc3ccccc3)C2)C1c1ccccc1 (centres undefined)
assigned class: inactive
--
compound: COc1ccc(NC(=O)Cn2cc(C(=O)c3ccc(F)cc3)c(=O)c3cc(C)ccc32)cc1
assigned class: inactive
--
compound: CC1OC2CC(O)C1(O)C1=C2C(O)=C(C(N)=O)C(=N)C1=O (centres undefined)
assigned class: active

Which result was noted for this compound in the test: COc1cc(OC)c2c(c1)C(=O)C1=C(COC(C)(O)C1)C2=O (centres undefined)
inactive

Which result was noted for this compound in the test: CCCCCCCCCC(CCCCCCCCCC(=O)O)O[C@H]1O[C@@H](COC(C)=O)[C@H](O)[C@@H](O)[C@H]1OC(=O)CC(=O)O (some centres undefined)
inactive

Which result was noted for this compound in the test: O=c1[nH]c(C2CCN(S(=O)(=O)c3ccc(S(=O)(=O)NC4CCCCC4)cc3)CC2)nc2c1nnn2Cc1c(F)cccc1Cl
inactive

Which result was noted for this compound in the test: COc1cc(C)cc2c1C(=O)c1c(cc(O)c(Cl)c1O)C2=O
active
